Task for the reader: assign each of the following molecules its reported pKb.
Organism: Oryctolagus cuniculus
Assay: Binding affinity to Oryctolagus cuniculus (rabbit) vas deferens M1 receptor after 1 hr
One number for each entry.

Some solved cases for reference:
{"molecule": "CN(C)C[C@@H]1CO[C@H](C(c2ccccc2)c2ccccc2)O1", "pKb": 7.31}
{"molecule": "C[C@@H]1OC(c2ccccc2)(c2ccccc2)O[C@@H]1CN(C)C (relative stereo)", "pKb": 6.35}
{"molecule": "CN(C)CC1COC(c2ccccc2)(c2ccccc2)O1 (stereo not given)", "pKb": 7.15}
{"molecule": "CN(C)C[C@@H]1CO[C@@H](C(c2ccccc2)c2ccccc2)O1", "pKb": 6.9}

Field pKb (entry C[C@H]1OC(c2ccccc2)(c2ccccc2)O[C@@H]1CN(C)C (relative stereo) ) reads 6.87
